The origin of these recorded values is patent US20260069689A1.

target: SARS-COV-2 RBD-MMH (SARS-COV-2 RBD extracellular domain with C-terminal myc-myc-hexahistidine tag) (SARS-CoV-2)
measured property: t½ at pH 7.4 (min)
Express your answer in min, writing the number without its unit.

{"binder": "mAb14257 (antibody, V domains shown) VH: EVQLVESGGGLVQPGGSLRLSCAASGFTVSRSYMNWVRQAPGKGLEWVSVVFTGGTTKHTDSVKGRFTISRDNSMNTLYLQMNSLRPEDTAVYYCARVAIVETTGAFDIWGQGTMVTVSS VL: QSVLTQPPSVSGAPGQRVTISCTGTSSNIGADFDVHWYQQFPGTAPKLLIYGHTNRPSGIPDRFSGSKSGTSASLAITGLQAEDEADYYCQSYDSSLSGSVVFGGGTKLTVLG", "t½ at pH 7.4 / min": 1.5}
{"binder": "mAb15151 (antibody, V domains shown) VH: QVQLVESGGGVVQPGRSLRLSCAASGFVFNSYGMHWVRQAPGKGLEWVAVLWYEGSKNYYADSVKGRFTISRDNSKNTLYLQMNSLRAEDTAVYYCARHGSGSFFGYYLDYWGQGTLVTVSS VL: DIQMTQSPSSLSASVGDRVTITCRASHNINDFLNWYQQKPGKAPRLLIYAASSLQSGVPSRFSGSGSGTDFTLTISSLQPEDFATYYCQESYTTPPTFGQGTKLEIKR", "t½ at pH 7.4 / min": 1.7}

Prompt: Please report the measured t½ at pH 7.4 for mAb14312 (antibody, V domains shown) VH: EVQLVESGGGLVQPGGSLRLSCAASGFTVSRSYMTWVRQAPGKGLEWVSVIFTGGRTDHADSVKGRFTISRHNSKNTLYLQMNSLRTEDTAVYYCARVAIVGATGAFDIWGQGTMVTVSS VL: QSVLTQPPSVSGAPGQRVTISCTGSSSNIGAGDDVHWYQQLPGTAPKLLIYGNSNRPSGVPDRFSGSKSGTSASLAITGLQAEDEADYYCQSYDSSLSGSVVFGGGTKLTVLG
Response: 13.5
